biological target: human IL-13 (source not stated for the assay) (human, UniProt P35225 35-146, limits assumed); assay: cell-based or functional assay
Sequence (P35225 35-146 limits assumed): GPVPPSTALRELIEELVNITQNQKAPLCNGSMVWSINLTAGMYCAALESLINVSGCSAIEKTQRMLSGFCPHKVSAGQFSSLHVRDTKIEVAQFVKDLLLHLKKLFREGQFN
reported-endpoint: IC50, IL-13 induced eotaxin release, Average (nM)
State just the number; it will be interpreted in nM.

Inquiry: Item mAb 731 (antibody, V domains shown, also called sc731) VH: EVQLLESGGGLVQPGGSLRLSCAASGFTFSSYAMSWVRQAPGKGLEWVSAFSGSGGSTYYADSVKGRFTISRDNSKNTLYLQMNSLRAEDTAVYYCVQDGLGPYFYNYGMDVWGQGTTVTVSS VL: SYELTQPPSVSVSPGQTASITCSGDKLGDKYACWFQQKPGQSPVLVIYHDSKRPSGIPERFSGSNSGDTATLTISGTQAMDEADYYCQAWDSSTYVFGTGTKVTVLG has what recorded IC50, IL-13 induced eotaxin release, Average?
Reply text: 0.016

Inquiry: I am curious: what IC50, IL-13 induced eotaxin release, Average value has been reported for mAb 643 (antibody, V domains shown) VH: EVQLVESGGGLVKPGGSLRLSCAASGFTFSNAWMSWVRQAPGKGLEWVGRIRSEIDGGTTNYAAPVKGRFTISRDDSKNTLYLQMNSLRTEDTAVYYCATDQVGAYYGDYYGMDVWGQGTTVTVSS VL: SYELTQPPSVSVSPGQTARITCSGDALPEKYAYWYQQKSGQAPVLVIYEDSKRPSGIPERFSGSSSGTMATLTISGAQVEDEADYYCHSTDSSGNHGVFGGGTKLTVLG ?
Reply text: 0.035

Inquiry: Would you mind telling me what IC50, IL-13 induced eotaxin release, Average value was observed for mAb 602 (antibody, V domains shown) VH: EVQLVESGGGLVKPGGSLRLSCAASGFTFSNAWMSWVRQAPGKGLEWVGRIRSKIDGGTINYAAPVKGRFTISRDDSKNTLYLQMNSLKTEDTAVYYCATDQVGAYYGDYYGMDVWGQGTTVTVSS VL: SYELTQPPSVSVSPGQTARITCSGDALPEKYAYWYQQKSGQAPVLVIYEDTKRPSGIPERFSGSSSGTMATLTISGAQVEDEADYYCYSTDSSGNHGVFGGGTKLTVLG ?
Reply text: 0.066
